Assign TGI to each entry below.
# System: SF-268 CNS
# Assay Summary: NCI tumour cell line growth inhibition, 48 h

Request: Please give the measured TGI for this molecule: CC1(C)OC(=O)C=C([O-])O1.CC1(C)OC(=O)C=C([O-])O1.O=S(=O)([O-])c1ccc([O-])c2ncccc12.O=S(=O)([O-])c1ccc([O-])c2ncccc12.[Ti+4]
Response: > 100 µM

Request: And for CNc1ccc(-c2nc3cc(C)ccc3o2)cc1 ?
Response: > 100 µM

Request: Cool, now CC(=O)NCCC1CN(C(=O)/C=C\C#C[Si](C)(C)C)c2ccccc21 (centres undefined)
Response: > 100 µM

Request: Next entry: O=C(NCCCCCCNC(=O)n1cc(F)c(=O)[nH]c1=O)NCCCOCCOCCCNC(=O)C(O)C(O)C(O)C(O)CO (centres undefined)
Response: > 2.5 µM

The reported numbers originate from PubChem BioAssay (NCI).
